Tested on: SF-268 CNS
Assay: NCI-60 one-dose screen, 48 h (100 = growth as untreated, 0 = no growth, -100 = all killed)
Settings: 10 µM unless noted
Protocol: Cells are grown in 96 well plates and exposed to the test compound for 48 hours. Compounds are tested at a single concentration, which is 10^-5 M for most compounds. The reported endpoint is percent growth (GI% or GIPRCNT), where numbers from 0 - 100% represent growth inhibition, and numbers from -100% - 0 represent cell death. For example, a value of 40 represents 60% growth inhibition. A value of 0 means no net growth occurred over the course of the experiment. […]
Compounds without any hit were thinned out: in the full panel of roughly 83,000, 20% have a hit.
// map growth to label using A: < 20%; B: ≥ 20% and < 90%; C: ≥ 90%

| MOLECULE | QUALITATIVE LABEL |
| --- | --- |
| O=C(NCCN1CC1)C(=O)NCCN1CC1 | B |
| CC[C@H](C)[C@H](NC(=O)C12CC(NC(C)=O)(C1)C2)C(=O)N(C)[C@H](C[C@@H](OC(C)=O)c1nc(C(=O)N[C@@H](Cc2ccccc2)C[C@H](C)C(=O)OC)cs1)C(C)C | B |
| COC(=O)[C@@]1(O)C[C@H]2O[C@]1(C)n1c3ccccc3c3c4c(c5c6ccccc6n2c5c31)C(=O)NC4 | A |
| NC(CCl)CCl | C |
| Nc1ccc(-c2nc3cc(F)ccc3[se]2)cc1F | B |
| CC(=O)/C=C/c1ccc2c(c1)OCO2 | C |
| CCOC(=O)[C@@H](C)C[C@H](Cc1ccccc1)NC(=O)c1csc([C@@H](C[C@H](C(C)C)N(C)C(=O)CNC(=O)[C@H]2CCCCN2C)OC(C)=O)n1 | B |
| CC12CC=CCC1CCC1C2CCC2(C)C(c3ccc(=O)oc3)CCC12O (stereo not drawn) | A |
| COc1cc2c(c(OC)c1OC)-c1ccc([O-])c(=O)cc1[C@@H](NC(C)=O)CC2.COc1cc2c(c(OC)c1OC)-c1ccc([O-])c(=O)cc1[C@@H](NC(C)=O)CC2.[Cu+2] | B |
| Clc1cccc(NCOOC2(OOCNc3cccc(Cl)c3)CCCCCC2)c1 | C |
| O=[N+]([O-])c1c(Br)sc(Br)c1[N+](=O)[O-] | B |
| Clc1cccc(NCOOC2(OOCNc3cccc(Cl)c3)CCCCC2)c1 | B |
| C/C(Cc1ccc(Cl)cc1)=C(\c1ccc(OCCN2CCOCC2)cc1)c1ccc(OC(=O)Cc2ccccc2)cc1 | C |

---

Tested on: CAKI-1 renal
Assay: NCI-60 one-dose screen, 48 h
Conditions: 10 µM unless noted
This is part of a sample that, as a whole, favours compounds with a hit. Of some 83,000 tested, about 20% had one in any assay. The source made the active and inactive calls. Rule for the calls: active = growth percent below 10; inactive = the rest.
Possible outcomes: active, inactive

| MOLECULE | SYSTEM NAME | QUALITATIVE LABEL |
| --- | --- | --- |
| Fc1ccc(N2COOC3(OOC2)C2CC4CC(C2)CC3C4)cc1 | CAKI-1 renal | inactive |
| Cn1cc(C=O)c2nccnc21 | CAKI-1 renal | inactive |
| CNC(=O)Oc1ccc(N(C)C)cc1C(C)C | CAKI-1 renal | inactive |
| O=[N+]([O-])/C=C\c1ccc(Cl)c(Cl)c1 | CAKI-1 renal | inactive |
| Cc1ccc(S(=O)(=O)F)cc1C(=O)O | CAKI-1 renal | inactive |
| CCOC(=O)N[C@H]1CCc2c(Br)c(OC)c(OC)c(OC)c2-c2ccc(SC)c(=O)cc21 | CAKI-1 renal | active |
| CC(=O)O[C@H]1C(=O)[C@@]2(C)[C@H]([C@H](OC(=O)c3ccccc3)[C@]3(O)C[C@H](OC(=O)[C@H](OC(=O)OCC4COC(C)(C)O4)[C@@H](NC(=O)c4ccccc4)c4ccccc4)C(C)=C1C3(C)C)[C@]1(OC(C)=O)CO[C@@H]1C[C@@H]2O (stereo not given in full) | CAKI-1 renal | inactive |
| O=C(N/N=C\c1ccc(N(CCCl)CCCl)cc1Cl)c1cccnc1 | CAKI-1 renal | inactive |
| O=C(CCl)c1ccc([N+](=O)[O-])o1 | CAKI-1 renal | active |
| O=C1C2C(C(=O)[N]1[Hg][c]1ccccc1)C1(Cl)C(Cl)=C(Cl)C2(Cl)C1(Cl)Cl (stereo not given) | CAKI-1 renal | active |
